system: Reduced glutathione in salivary gland cell clusters (SGm); test: Glutathione assay in salivary gland tissue chip, 4 days post-radiation (15 Gy); also first screen of Selleck library at 100 μM; assay type: cell-based, mouse; details: first screen of Selleck library at 100 μM, 15 Gy, 4 days post-radiation
Criterion met if Glutathione normalized mean intensity is below 0.6. Criterion not met if not; exact matches included in Criterion not met.

> print(dat)
                                   molecule                           target.of.assay     assigned.label
1  Cc1cccc(C)c1NC(=O)CN1CCCC1=O [Nefiracetam (Translon)]  Reduced glutathione in salivary gland cell clusters (SGm)  Criterion not met
2  O=C(O)CSCC(=O)NC1CCSC1=O (centres unmarked) [Erdosteine]  Reduced glutathione in salivary gland cell clusters (SGm)      Criterion met
3  COc1cc(NS(=O)(=O)c2ccc(N)cc2)nc(OC)n1 [Sulphadimethoxine]  Reduced glutathione in salivary gland cell clusters (SGm)  Criterion not met

Let's switch to this molecule now.
Q. Strictly below 0.6 in Glutathione normalized mean intensity? Nc1ncn([C@@H]2O[C@H](CO)[C@@H](O)[C@H]2O)c(=O)n1 [Azacitidine (Vidaza)]
A. Criterion met
